system: FXR:RXRa (NR concentration 270 nM, RXRa partner concentration 90 nM); test: PBM binding z-score (relative to random genomic background probes); higher = stronger binding; sequences stand for … in GC…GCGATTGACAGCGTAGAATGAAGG
Rule: PBM binding z-score under 0.01 gives No, otherwise Yes.

Examples from the recorded data:
primary-sequence: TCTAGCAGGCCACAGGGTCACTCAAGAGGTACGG
label: Yes
//
primary-sequence: TCGTGTAGATCAGCAGGTTAAGAAAGCTGGCCAA
label: No
//
primary-sequence: ATTCCAAGGTGATCGTGAGGTCGTTGATACTAAC
label: Yes

Challenge: Could you verify whether the entry ACTATTAGTTGACTTAGGCCAACCGATACGACGC shows PBM binding z-score of no less than 0.01?
Response given: Yes

Challenge: Is the recorded value of PBM binding z-score equal to or greater than 0.01 for this sequence? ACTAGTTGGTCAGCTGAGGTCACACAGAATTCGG
Response given: Yes

Challenge: Is the recorded value of PBM binding z-score equal to or greater than 0.01 for this sequence? TCGAGTTGGTTAGTCGGGGCATTCAGCCAACATA
Response given: Yes

====

test system: RARa:RXR (NR concentration 270 nM, RXRa partner concentration 90 nM); assay: PBM binding z-score (relative to random genomic background probes); higher = stronger binding; sequences stand for … in GC…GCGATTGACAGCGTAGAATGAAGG
For each entry below, report its PBM binding z-score value.
One number for each entry.

Field: example entries. Status: answers known.
primary-sequence: ACAGACAGGTTAGTGAAGGTAACTCAGCTGGACG
experimental-system: RARa:RXR (NR concentration 270 nM, RXRa partner concentration 90 nM)
PBM binding z-score: 0.306

primary-sequence: ACTTACGGGTTAACGAGGTTATAGCACGCGTATA
experimental-system: RARa:RXR (NR concentration 270 nM, RXRa partner concentration 90 nM)
PBM binding z-score: 2.6

primary-sequence: CCGAGTAGGTTATGGGGCATTCCGGCAACGGTGA
experimental-system: RARa:RXR (NR concentration 270 nM, RXRa partner concentration 90 nM)
PBM binding z-score: 0.0767

primary-sequence: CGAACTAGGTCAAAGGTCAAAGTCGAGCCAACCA
experimental-system: RARa:RXR (NR concentration 270 nM, RXRa partner concentration 90 nM)
PBM binding z-score: 8.93

primary-sequence: CTCGCAAGGTCGTGCTCAGGTGAGTATACCAAAC
experimental-system: RARa:RXR (NR concentration 270 nM, RXRa partner concentration 90 nM)
PBM binding z-score: 2.37

primary-sequence: GCATATAGGTAATGCAAGGTGAAAGTCCGATTGT
experimental-system: RARa:RXR (NR concentration 270 nM, RXRa partner concentration 90 nM)
PBM binding z-score: 1.73

Please give PBM binding z-score, item by item, for the list that follows.
1. TGAATGAGGTTATAAGATCAGGCAACGTTGCAAA
2. ACAGACAGGTGATGAAGGGAACTCAGGCTATCAT
3. GGAACGAGGGCATTCTAGTTGATAGCATGGCGAT
4. AGAACGAGCGCACGCTGAGTTGATAGCAGAGTAG
5. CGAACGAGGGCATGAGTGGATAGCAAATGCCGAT
6. CGAACTAGGTCATCCAGGACAGTAAATACATTGA

Response given:
1: 1.52; 2: -0.121; 3: 0.248; 4: -0.952; 5: 0.373; 6: 2.69
